Assign inhibition at 3 µM to each entry below.
System: TGFβ signal
measurementNotes: TGFβ signal inhibitory activity, (SBE)4-Luc reporter in A549 cells (Test Examples 1A and 1B)
Type: cell-based, human
recordedConditions: Homo sapiens, A549; test compound 3 µM; TGFβ-1 2 ng/ml, 4 hr; Table 1A; read-out: TGFβ inhibition rate, %

• CCc1ccc(Oc2ccnc3cc(C(N)=O)c(O)cc23)c(-c2ncccn2)n1 = 60%
• CCc1ccc(Oc2ccnc3cc(OC)c(F)cc23)c(-c2ncccn2)n1 = 99%
• COc1cc2c(Oc3cc4cccnc4nc3-c3ccccc3)ccnc2cc1Cl = 98%

Quick one: give me inhibition at 3 µM for each item below, same order please.
1. COc1cc2nccc(Oc3cc4cccnc4nc3-c3ccc(C#N)cc3)c2cc1OC
2. Cc1ccc(Oc2ccnc3ccc(O)cc23)c(-c2ncccn2)n1
3. COC(=O)c1cc2nccc(Oc3cc4cccnc4nc3-c3ccccc3)c2cc1OC
4. Cc1cc(Oc2ccnc3ccc(-c4cccc(N)c4)cc23)c(-c2ccccn2)nc1C
5. Cc1ccc(Oc2ccnc3cc(C(N)=O)ccc23)c(-c2ncccn2)n1

Result:
1. 26%
2. 82%
3. 99%
4. 100%
5. 90%

Quick one: give me inhibition at 3 µM for each item below, same order please.
1. COc1cc2c(Oc3cc(C)c(C)nc3-c3ccccn3)ccnc2cc1Cl
2. CCc1ccc(Oc2ccnc3cc(OC)c(OC)cc23)c(-c2ncccn2)n1
3. FC(F)(F)c1ccc2nccc(Oc3cc4cccnc4nc3-c3ccccc3)c2c1
4. CCc1ccc(Oc2ccnc3cc(C(C)(C)C)sc23)c(-c2ccccn2)n1
5. CCc1ccc(Oc2ccnc3cc(F)c(OCCO)cc23)c(-c2ncccn2)n1
6. Cc1cc(Oc2ccnc3ccc(-c4ccccc4)cc23)c(-c2ccccn2)nc1C
7. Cc1csc2ncnc(Oc3cc4cccnc4nc3-c3ccccc3)c12

Result:
100%
98%
76%
74%
89%
79%
93%

Quick one: give me inhibition at 3 µM for each item below, same order please.
1. Cc1cc(Oc2ccnc3ccccc23)c(-c2ccccn2)nc1C
2. Fc1ccc2nccc(Oc3cc4cccnc4nc3-c3ccccc3)c2c1
3. Cc1ccc(Oc2ccnc3ccc(OCCCN4CCN(c5ccccn5)CC4)cc23)c(-c2ncccn2)n1

Result:
1. 100%
2. 83%
3. 84%

---

Assign inhibition at 10 µM to each entry below.
Tested on: TGFβ signal
measurementNotes: TGFβ signal inhibitory activity, (SBE)4-Luc reporter in A549 cells (Test Examples 1A and 1B)
Type: cell-based, human
recordedConditions: Homo sapiens, A549; test compound 10 µM; Reference Examples, Table 1B; read-out: TGFβ inhibition rate, %
Answers are plain numbers, in %.

Example cases with answers are listed next.
• COc1cc2nccc(Oc3ccc(Cl)cc3C(=O)Nc3ccccc3)c2cc1OC [Compound r105] = 88
• COc1cc2c(Oc3ccc(C)cc3C(=O)c3ccccc3)ccnc2cc1OCCCCN1CCC(CO)CC1 [Compound r144] = 100
• COc1cc2nccc(Oc3ccccc3C(C)=O)c2cc1OC [Compound r29] = 67
• COc1cc2nccc(Oc3ccc4c(ccn4C(C)=O)c3)c2cc1OC [Compound r21] = 71
• COc1cc2nccc(Oc3ccc4c(c3)COC(=O)N4)c2cc1OC [Compound r23] = 91
• CCOC(=O)c1cc(I)ccc1Oc1ccnc2cc(OC)c(OC)cc12 [Compound r86] = 99
• COc1cc2nccc(Oc3ccc(C)c(C)c3)c2cc1OC [r15] = 84
• CCN(CC)CCOc1cc2nccc(Oc3ccc(C)cc3C(=O)c3ccccc3)c2cc1OC [Compound r125] = 100
• COc1cc2c(Oc3ccc(C)cc3C(=O)c3ccccc3)ccnc2cc1OCCN1CCC(N2CCCC2)CC1 [Compound r127] = 100
• COc1cc2nccc(Oc3ccc4ccccc4c3C=O)c2cc1OC [Compound r27] = 93

Quick one: give me inhibition at 10 µM for each item below, same order please.
1. COc1cc2nccc(Oc3ccc(C)cc3C(=O)C(C)C)c2cc1OC [Compound r53]
2. COc1cc2c(Oc3ccc(C)cc3C(=O)c3ccccc3)ccnc2cc1OCC(O)CN1CCNCC1 (stereo not drawn) [Compound r157]
3. COc1cc2nccc(Oc3ccc4c(ccn4C)c3)c2cc1OC [Compound r20]
4. CCCCC(CC)COC(=O)c1ccccc1Oc1ccnc2cc(OC)c(OC)cc12 (stereo not drawn) [Compound r101]
5. COc1cc2nccc(Oc3ccc(C)cc3C(C)=O)c2cc1OC [Compound r35]
6. COc1cc2c(Oc3ccc(C)cc3C(=O)c3ccccc3)ccnc2cc1OCCCCN1CCOCC1 [Compound r149]

Result:
1: 100; 2: 100; 3: 69; 4: 64; 5: 89; 6: 100

Quick one: give me inhibition at 10 µM for each item below, same order please.
1. COc1cc2nccc(Oc3ccc(C)cc3C(=O)N3CCCCC3)c2cc1OC [r109]
2. CCOC(=O)c1cc(-c2ccc(F)cc2F)ccc1Oc1ccnc2cc(OC)c(OC)cc12 [Compound r89]

Result:
1. 66
2. 63

---

Test system: TGFβ signal
measurementNotes: TGFβ signal inhibitory activity, (SBE)4-Luc reporter in A549 cells (Test Examples 1A and 1B)
Assay type: cell-based, human
recordedConditions: Homo sapiens, A549; 3 µM; compounds of Reference Examples (Test Example 1B); read-out: TGFβ inhibition rate, %
Assign inhibition at 3 µM to each entry below.
Give bare numbers, in %.

Example cases with answers are listed next.
- COc1cc2nccc(Oc3ccc(C)nc3-c3cc(C)n(C)n3)c2cc1OC: 98
- COc1cc2c(Oc3cc4cnccc4nc3C)ccnc2cc1OCC(O)CO (stereo not drawn): 38
- COc1cc2c(Oc3cc4ccccc4nc3C)ccnc2cc1OCCN1CCC(O)CC1: 100
- COc1cc2c(Oc3cc(C)c(C)nc3-c3cccnc3)ccnc2cc1OCC1CO1 (stereo not drawn): 76
- COc1cc2c(Oc3cc4ccccc4nc3C)ccnc2cc1OCCO: 99
- COc1cc2nccc(Oc3cc4ccccc4nc3C)c2cc1OCCn1ccnc1: 92
- CCc1ccc(Oc2ccnc3cc(OC)c(OC)cc23)c(C(C)=O)c1: 82
- COc1cc2c(Oc3cc(C)c(C)nc3-c3ccccn3)ccnc2cc1OCC(CO)CO: 93

# context switch: different molecule, same inhibition at 3 µM
Request: Entry under review: `COc1cc2c(Oc3cc(C)c(C)nc3-c3ccccn3)ccnc2cc1O` . Reported inhibition at 3 µM?
Result: 92

---

Tested on: TGFβ signal
measurementNotes: TGFβ signal inhibitory activity, (SBE)4-Luc reporter in A549 cells (Test Examples 1A and 1B)
Type: cell-based, human
recordedConditions: Homo sapiens, A549; 3 µM; compounds of Reference Examples (Test Example 1B); read-out: TGFβ inhibition rate, %
Binary call on inhibition at 3 µM: True from 90% upward, False beneath that.

Here are 5 compounds together with their reported answers.
* COc1cc2nccc(Oc3ccc(C)nc3-c3cnn(C)c3)c2cc1OC | True
* COc1cc2c(Oc3cc4ccccc4nc3C)ccnc2cc1OCc1ccccc1 | False
* COc1cc2nccc(Oc3cc4cc(F)ccc4nc3-c3ccccc3)c2cc1OC | False
* COc1cc2c(Oc3cc(C)c(C)nc3-c3cccc(C)n3)ccnc2cc1O | False
* COc1cc2nccc(Oc3c(C)nc4ccccc4c3Br)c2cc1OC | False

Pending compound:
Request: Hi team, for `COc1cc2nccc(Oc3cc(C)c(C(C)C)cc3C(C)=O)c2cc1OC` , is the recorded inhibition at 3 µM at or above 90%?
Result: False

---

System: TGFβ signal
measurementNotes: TGFβ signal inhibitory activity, (SBE)4-Luc reporter in A549 cells (Test Examples 1A and 1B)
Format: cell-based, human
recordedConditions: Homo sapiens, A549; test compound 10 µM; Reference Examples, Table 1B; read-out: TGFβ inhibition rate, %
endpointName: inhibition at 10 µM (%)
Numbers only, in %.

Example cases with answers are listed next.
• COc1cc2c(Oc3ccc(C)cc3C(=O)c3ccccc3)ccnc2cc1OCCNCCO [r124] = 100
• COc1cc2nccc(Oc3ccc(C(=O)c4cccc(C)c4)cc3)c2cc1OC [r78] = 57
• CC/C=C\CCOC(=O)c1ccccc1Oc1ccnc2cc(OC)c(OC)cc12 [Compound r100] = 82
• COc1ccc(C(=O)c2ccccc2)c(Oc2ccnc3cc(OC)c(OC)cc23)c1 [Compound r64] = 98
• CCCCOC(=O)c1ccccc1Oc1ccnc2cc(OC)c(OC)cc12 [Compound r98] = 93
• COc1ccc(Oc2ccnc3cc(OC(=O)N4CCOCC4)c(OC)cc23)c(C(C)=O)c1 [Compound r118] = 100
• COc1cc2nccc(Oc3ccc(C)nc3I)c2cc1OC [r116] = 100
• COc1cc2nccc(Oc3ccc(C)cc3Br)c2cc1OC [Compound r4] = 78

# context switch: different molecule, same inhibition at 10 µM
Request: Entry under review: COc1cc2nccc(Oc3ccc(Br)cc3C(C)=O)c2cc1OC [r34] . Reported inhibition at 10 µM?
Result: 78
